The values you see were collected from ChEMBL document CHEMBL3608294.

Consider the following compounds and their measured Ratio readings.
- study target: ATP-dependent translocase ABCB1 (Homo sapiens, UniProt P08183)
- Sequence (P08183 whole entry): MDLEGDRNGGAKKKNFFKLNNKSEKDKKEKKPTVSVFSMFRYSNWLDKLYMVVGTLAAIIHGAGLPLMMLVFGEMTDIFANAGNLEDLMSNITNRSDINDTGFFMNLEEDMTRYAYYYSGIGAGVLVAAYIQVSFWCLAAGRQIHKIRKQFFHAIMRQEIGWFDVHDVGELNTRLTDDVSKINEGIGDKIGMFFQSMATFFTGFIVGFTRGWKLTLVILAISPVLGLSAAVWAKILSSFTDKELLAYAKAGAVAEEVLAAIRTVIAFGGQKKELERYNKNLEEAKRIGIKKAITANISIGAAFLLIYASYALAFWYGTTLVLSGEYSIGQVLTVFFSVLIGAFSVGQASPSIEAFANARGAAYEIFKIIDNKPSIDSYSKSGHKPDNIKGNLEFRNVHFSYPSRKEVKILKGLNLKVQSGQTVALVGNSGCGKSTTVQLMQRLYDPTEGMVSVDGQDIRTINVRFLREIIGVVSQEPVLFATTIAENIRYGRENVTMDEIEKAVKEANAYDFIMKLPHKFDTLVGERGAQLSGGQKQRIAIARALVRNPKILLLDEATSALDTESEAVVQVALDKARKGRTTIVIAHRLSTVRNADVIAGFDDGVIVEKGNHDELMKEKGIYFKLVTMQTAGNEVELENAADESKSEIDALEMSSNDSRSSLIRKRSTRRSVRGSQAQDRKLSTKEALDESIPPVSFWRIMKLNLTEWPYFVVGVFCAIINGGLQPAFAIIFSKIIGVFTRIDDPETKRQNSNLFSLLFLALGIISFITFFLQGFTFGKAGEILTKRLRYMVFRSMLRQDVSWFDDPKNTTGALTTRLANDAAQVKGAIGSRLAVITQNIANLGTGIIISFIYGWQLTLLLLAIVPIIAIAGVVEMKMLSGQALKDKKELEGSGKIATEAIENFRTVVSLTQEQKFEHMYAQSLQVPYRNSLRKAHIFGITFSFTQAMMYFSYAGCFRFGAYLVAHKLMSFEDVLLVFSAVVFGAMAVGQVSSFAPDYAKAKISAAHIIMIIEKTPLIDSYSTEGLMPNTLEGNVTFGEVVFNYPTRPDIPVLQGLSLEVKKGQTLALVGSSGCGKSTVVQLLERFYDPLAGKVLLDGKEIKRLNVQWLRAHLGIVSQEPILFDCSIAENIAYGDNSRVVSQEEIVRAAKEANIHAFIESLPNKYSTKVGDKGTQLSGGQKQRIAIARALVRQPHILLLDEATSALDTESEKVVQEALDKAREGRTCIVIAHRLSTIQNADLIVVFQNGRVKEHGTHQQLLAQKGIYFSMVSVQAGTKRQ
- method: Inhibition of ABCB1 in multidrug resistant human COLO320 cells assessed as fluorescence activity ratio at 20 uM incubated for 10 mins by flow cytometry based rhodamine-123 accumulation assay (reference value: 0.62)
assay readout: Ratio

cpd smiles	assay readout	recorded number
CCO[C@@H]1[C@@H]2C(=O)C(O)(C[C@H](C)[C@@H]2O)/C(C)=C\[C@@H]2[C@H](CC[C@@]1(O)CO)C2(C)C	Ratio	3.18
COc1ccccc1C(=O)OC[C@]1(C)CC[C@H]2[C@@H](/C=C(\C)C(=O)[C@@]3(O)C[C@H](C)[C@H](OC(=O)c4ccccc4OC)[C@@H]3[C@H]1O)C2(C)C	Ratio	12.35
C/C1=C\[C@@H]2[C@H](CC[C@]3(CO3)[C@H](OC(=O)c3cccc(C)c3)[C@H]3[C@@H](OC(=O)c4cccc(C)c4)[C@@H](C)C[C@]3(O)C1=O)C2(C)C	Ratio	6.86
C/C1=C\[C@@H]2[C@H](CC[C@]3(CO3)[C@H](OC(=O)c3ccc4ccccc4c3)[C@H]3[C@@H](OC(=O)c4ccc5ccccc5c4)[C@@H](C)C[C@]3(O)C1=O)C2(C)C	Ratio	5.06
C/C1=C\[C@@H]2[C@H](CC[C@@](C)(O)[C@H](O)[C@H]3[C@@H](O)[C@@H](C)C[C@]3(O)[C@H]1O)C2(C)C	Ratio	1.11

###

- method: Antiproliferative activity against chemosensitive human COLO205 cells incubated for 72 hrs by MTT assay
- Assay type: functional, cell-based
- condition label: COLO 205, 72 h
pIC50: −log10 of the molar value.
Property: pIC50; scope: individual compounds
assay readout: pIC50

cpd smiles	assay readout	result
C/C1=C\[C@@H]2[C@H](CC[C@]3(CO3)[C@H](OC(=O)c3ccc(C(F)(F)F)cc3)[C@H]3[C@@H](OC(=O)c4ccc(C(F)(F)F)cc4)[C@@H](C)C[C@]3(O)C1=O)C2(C)C	pIC50	< 4.00
C/C1=C\[C@@H]2[C@H](CC[C@@](C)(O)[C@H](O)[C@H]3[C@@H](O)[C@@H](C)C[C@]3(O)[C@@H]1O)C2(C)C	pIC50	< 4.00
C/C1=C\[C@@H]2[C@H](CC[C@]3(CO3)[C@H](OC(=O)c3cccs3)[C@H]3[C@@H](OC(=O)c4cccs4)[C@@H](C)C[C@]3(O)C1=O)C2(C)C	pIC50	4.73
CO[C@H]1[C@@H]2[C@H](CC[C@]3(COC(C)=O)O[C@@H]3[C@H]3[C@@H](OC(C)=O)[C@@H](C)C[C@]3(O)C(=O)[C@@H]1C)C2(C)C	pIC50	< 4.00
C/C1=C\[C@@H]2[C@H](CC[C@]3(CO3)[C@H](OC(=O)c3ccc4ccccc4c3)[C@H]3[C@@H](OC(=O)c4ccc5ccccc5c4)[C@@H](C)C[C@]3(O)C1=O)C2(C)C	pIC50	< 4.00
CC(=O)O[C@@H]1[C@@H]2[C@@H](OC(C)=O)[C@](C)(OC(C)=O)CC[C@H]3[C@@H](/C=C(\C)[C@H](OC(C)=O)[C@@]2(OC(C)=O)C[C@@H]1C)C3(C)C	pIC50	< 4.00
C/C1=C\[C@@H]2[C@H](CC[C@@](C)(O)[C@H](O)[C@H]3[C@@H](O)[C@@H](C)C[C@]3(O)[C@H]1O)C2(C)C	pIC50	< 4.00
C/C1=C\[C@@H]2[C@H](CC[C@]3(CO3)[C@H](O)[C@H]3[C@@H](O)[C@@H](C)C[C@]3(O)C1=O)C2(C)C	pIC50	< 4.00
C/C1=C\[C@@H]2[C@H](CC[C@]3(CO3)[C@H](OC(=O)C34CC5CC(CC(C5)C3)C4)[C@H]3[C@@H](OC(=O)C45CC6CC(CC(C6)C4)C5)[C@@H](C)C[C@]3(O)C1=O)C2(C)C	pIC50	< 4.30
CCC(=O)OC[C@]1(O)CC[C@H]2[C@@H](/C=C(\C)C(=O)[C@@]3(O)C[C@H](C)[C@H](OC(=O)CC)[C@@H]3[C@H]1O)C2(C)C	pIC50	< 4.00
COc1ccccc1C(=O)OC[C@]1(C)CC[C@H]2[C@@H](/C=C(\C)C(=O)[C@@]3(O)C[C@H](C)[C@H](OC(=O)c4ccccc4OC)[C@@H]3[C@H]1O)C2(C)C	pIC50	4.81

###

Ratio values for the molecules below.
- study target: ATP-dependent translocase ABCB1 (Homo sapiens, UniProt P08183)
- method: Inhibition of human ABCB1 expressed in mouse L5178Y cells assessed as fluorescence activity ratio at 0.2 uM incubated for 10 mins by flow cytometry based rhodamine-123 accumulation assay (reference value: 0.78)
- Format: cell-based
assay readout: Ratio

cpd smiles	study target	recorded number
CO[C@H]1[C@@H]2[C@H](CC[C@]3(COC(=O)c4ccccc4)O[C@@H]3[C@H]3[C@@H](OC(=O)c4ccccc4)[C@@H](C)C[C@]3(O)C(=O)[C@@H]1C)C2(C)C	ATP-dependent translocase ABCB1 (Homo sapiens, UniProt P08183)	11.85
CO[C@H]1[C@@H]2[C@H](CC[C@]3(COC(=O)c4ccc(C(F)(F)F)cc4)O[C@@H]3[C@H]3[C@@H](OC(=O)c4ccc(C(F)(F)F)cc4)[C@@H](C)C[C@]3(O)C(=O)[C@@H]1C)C2(C)C	ATP-dependent translocase ABCB1 (Homo sapiens, UniProt P08183)	9.87
C/C1=C\[C@@H]2[C@H](CC[C@]3(CO3)[C@H](OC(=O)c3ccc4ccccc4c3)[C@H]3[C@@H](OC(=O)c4ccc5ccccc5c4)[C@@H](C)C[C@]3(O)C1=O)C2(C)C	ATP-dependent translocase ABCB1 (Homo sapiens, UniProt P08183)	13.67
C/C1=C\[C@@H]2[C@H](CC[C@]3(CO3)[C@H](OC(=O)c3cccc(C)c3)[C@H]3[C@@H](OC(=O)c4cccc(C)c4)[C@@H](C)C[C@]3(O)C1=O)C2(C)C	ATP-dependent translocase ABCB1 (Homo sapiens, UniProt P08183)	3.55
COc1cccc(C(=O)O[C@@H]2[C@@H]3[C@@H](OC(=O)c4cccc(OC)c4)[C@]4(CC[C@H]5[C@@H](/C=C(\C)C(=O)[C@@]3(O)C[C@@H]2C)C5(C)C)CO4)c1	ATP-dependent translocase ABCB1 (Homo sapiens, UniProt P08183)	10.45

###

Entries and their Ratio values follow.
- study target: ATP-dependent translocase ABCB1 (Homo sapiens, UniProt P08183)
- method: Inhibition of human ABCB1 expressed in mouse L5178Y cells assessed as fluorescence activity ratio at 0.2 uM incubated for 10 mins by flow cytometry based rhodamine-123 accumulation assay (reference value: 0.78)
- Format: cell-based

cpd smiles	Ratio
COc1ccccc1C(=O)OC[C@]1(C)CC[C@H]2[C@@H](/C=C(\C)C(=O)[C@@]3(O)C[C@H](C)[C@H](OC(=O)c4ccccc4OC)[C@@H]3[C@H]1O)C2(C)C	2.47
C/C1=C\[C@@H]2[C@H](CC[C@]3(CO3)[C@H](OC(=O)c3ccc(N(C)C)cc3)[C@H]3[C@@H](OC(=O)c4ccc(N(C)C)cc4)[C@@H](C)C[C@]3(O)C1=O)C2(C)C	1.38
C/C1=C\[C@@H]2[C@H](CC[C@@](C)(O)[C@H](O)[C@H]3[C@@H](OC(=O)c4ccccc4)[C@@H](C)C[C@]3(O)[C@H]1OC(=O)c1ccccc1)C2(C)C	2.33

###

- method: Antiproliferative activity against chemosensitive human COLO205 cells incubated for 72 hrs by MTT assay
- Type: functional, cell-based
- condition label: COLO 205, 72 h
assay readout: IC50

cpd smiles	result
C/C1=C\[C@@H]2[C@H](CC[C@]3(CO3)[C@H](OC(=O)c3ccco3)[C@H]3[C@@H](OC(=O)c4ccco4)[C@@H](C)C[C@]3(O)C1=O)C2(C)C	27.8 µM
CO[C@H]1[C@@H]2[C@H](CC[C@]3(CO)O[C@@H]3[C@H]3[C@@H](O)[C@@H](C)C[C@]3(O)C(=O)[C@@H]1C)C2(C)C	> 100 µM
C/C1=C\[C@@H]2[C@H](CC[C@]3(CO3)[C@H](OC(=O)N3CCOCC3)[C@H]3[C@@H](OC(=O)N4CCOCC4)[C@@H](C)C[C@]3(O)C1=O)C2(C)C	> 100 µM
C/C1=C\[C@@H]2[C@H](CC[C@]3(CO3)[C@H](OC(=O)c3ccc(-c4ccccc4)cc3)[C@H]3[C@@H](OC(=O)c4ccc(-c5ccccc5)cc4)[C@@H](C)C[C@]3(O)C1=O)C2(C)C	> 100 µM
C/C1=C\[C@@H]2[C@H](CC[C@]3(CO3)[C@H](OC(=O)c3cccc(C)c3)[C@H]3[C@@H](OC(=O)c4cccc(C)c4)[C@@H](C)C[C@]3(O)C1=O)C2(C)C	15.4 µM
C/C1=C\[C@@H]2[C@H](CC[C@]3(CO3)[C@H](OC(=O)N(C)C)[C@H]3[C@@H](O)[C@@H](C)C[C@]3(O)C1=O)C2(C)C	69 µM
CCO[C@@H]1[C@@H]2C(=O)C(O)(C[C@H](C)[C@@H]2O)/C(C)=C\[C@@H]2[C@H](CC[C@@]1(O)CO)C2(C)C	> 100 µM
COc1cccc(C(=O)O[C@@H]2[C@@H]3[C@@H](OC(=O)c4cccc(OC)c4)[C@]4(CC[C@H]5[C@@H](/C=C(\C)C(=O)[C@@]3(O)C[C@@H]2C)C5(C)C)CO4)c1	> 100 µM
